Reference for the values: patent US7964531B2

outcome.measure: melting point

Check out these entries, answers already filled in.
Cc1ccccc1Oc1nncc(Cl)c1O = 238 to 243 °C
N#CC1(c2ccccc2Oc2nnc(Cl)cc2O)CC1 = 63 to 64 °C
Cc1cccc(Oc2nnc(Cl)cc2O)c1[N+](=O)[O-] = 191 to 200 °C
CC(C)Oc1ccccc1Oc1nnc(Cl)cc1O = 178 to 179 °C
CCOc1cccc(C2CC2)c1Oc1nnc(Cl)cc1O = 174 to 179 °C

Entry under review: "CCc1ccc(OC)cc1Oc1nnc(Cl)cc1O" . Reported melting point?
124 to 126 °C

====

- System: Scirpus joncoides
- assay.info: Test Example 1: herbicidal effects, paddy-field pot test
- Format: in vivo
- condition.details: chemical dosage 10 g/a; wettable powder applied 3 days after transplanting; judged after 25 days
Below, each entry is listed with its recorded Herbicidal effects Scirpus joncoides.

Check out these entries, answers already filled in.
Oc1cc(Cl)nnc1Oc1c(Br)ccc2c1CCC2 = 4 (Growth inhibition rate; 71 to 90%)
O=C(Oc1cc(Cl)nnc1Oc1ccccc1C1CC1)c1ccccc1 = 5 (Growth inhibition rate; 91 to 100%)
CC1CC1c1ccccc1Oc1nnc(Cl)cc1O (stereo not shown) = 5 (Growth inhibition rate; 91 to 100%)
COC(=O)Oc1cc(Cl)nnc1Oc1ccccc1C1CC1 = 5 (Growth inhibition rate; 91 to 100%)
Oc1cc(Cl)nnc1Oc1cccc(F)c1F = 3 (Growth inhibition rate; 51 to 70%)
Cc1ccccc1Oc1nnc(Cl)cc1OC(=O)c1ccccc1 = 3 (Growth inhibition rate; 51 to 70%)

Checklist item: Herbicidal effects Scirpus joncoides tested on Scirpus joncoides, entry "CCc1cccc(C)c1Oc1nnc(Cl)cc1O" , value?
5 (Growth inhibition rate; 91 to 100%)

Checklist item: Herbicidal effects Scirpus joncoides tested on Scirpus joncoides, entry "Oc1cc(Cl)nnc1Oc1c(F)cccc1Cl" , value?
3 (Growth inhibition rate; 51 to 70%)

Checklist item: Herbicidal effects Scirpus joncoides tested on Scirpus joncoides, entry "Oc1cc(Cl)nnc1Oc1cccc2c1CCCC2" , value?
3 (Growth inhibition rate; 51 to 70%)

Checklist item: Herbicidal effects Scirpus joncoides tested on Scirpus joncoides, entry "Cc1ccc(S(=O)(=O)Oc2cc(Cl)nnc2Oc2ccccc2C2CC2)cc1" , value?
4 (Growth inhibition rate; 71 to 90%)

Checklist item: Herbicidal effects Scirpus joncoides tested on Scirpus joncoides, entry "Oc1cc(Cl)nnc1Oc1c(F)cccc1Br" , value?
3 (Growth inhibition rate; 51 to 70%)

Checklist item: Herbicidal effects Scirpus joncoides tested on Scirpus joncoides, entry "CC(C)c1cccc(C2CC2)c1Oc1nnc(Cl)cc1O" , value?
4 (Growth inhibition rate; 71 to 90%)

Checklist item: Herbicidal effects Scirpus joncoides tested on Scirpus joncoides, entry "Oc1cc(Cl)nnc1Oc1cccc2occc12" , value?
5 (Growth inhibition rate; 91 to 100%)
